- Test system: MS2 coat protein
- MEASUREMENT NOTES: apparent Kd, MS2 coat protein; higher = weaker binding; RNA-MaP array; FMN 200 µM where present
- CONDITION SET: designed as: OFF switch for flavin mononucleotide; no ligand
Reported apparent Kd values for the following sequences.
Form entry: enter the amount, then its unit.

// solved cases for apparent Kd follow
> print(dat)
                                   residues   result
1  GGAAAGUAAGGAUAUGCGAACAAACAAACAAACAAAAGGGAACAUGAGGAUCACCCAUGUAGAAGGUGCAAACA  46.3 nM
2  UUUUAACAUGAGGAUCACCCAUGUGAGGAUAUCGAAAUUUAUAUUAAUAUUAUUAAUUCGAGAAGGCACAUUUU   117 nM
3  AAGUCGCGGUCAGGAUAUCAGAAACAAAUUGACUGAGAAGGGAUGGCACAUGAGGAUCACCCAUGUCGUCGUCGCAGUGGGUGA   116 nM
4  AAUAUGUUGCAGAAGGUUAUAUUUUUUUAGUACCUCAUGACAUGAGGAUCACCCAUGUUUUUGUUGAAGGAUAUGCAAUAUAUU  17.1 nM

Q) For UACUAUAAGGAGGAUAUCGUAUCGGAAACGAUACGAGAAGGCUUAACAUGAGGAUCACCCAUGUUCUUCAAUAA , what is its reported apparent Kd?
A) 16.6 nM

Q) Repeat for the following sequence: GAAACCUCAGGUUAAGGUUGACGACAUGAGGAUCACCCAUGUAGAAGGACCAAGGCGACCGUACGGUAGGAUAUACACGGGAGG
A) 10.8 nM

Q) Same lookup for UUUUAACAUGAGGAUCACCCAUGUGAGGAUAUCGAAAUUUAUAUUAAUAUUUAUUAUACGAGAAGGCACAUUUU , please.
A) 73.6 nM

Q) Same lookup for CGAUAUAUGAAGGGCGAACGCGCACAUGAGGAUCACCCAUGUAGAAGGCGAUCCGCAACGCGGAUCGAGGAUAUAUAGUAUACA , please.
A) 37 nM

Q) What about this sequence? AUAAACCAAGGAUAUACAUGAGGAUCACCCAUGUUCCCUUGAACCCAGGGUAUGCAAUGUAGAAGGUGGGAAAC
A) 20 nM

Q) Repeat for the following sequence: UCUGCAUAGUCAGGAUAUGCAAAGUAAUGUAUGGAAACAUACAUUACAACAUGAGGAUCACCCAUGUAGAAGGGACUGUGCAGA
A) 14 nM

Q) Try this sequence too: UGUUUUCAUGUAGGAUAUGCUUGUCGUAGAUACGCAGAAGGACAUGAGGAUCACCCAUGUUAAUGCGACAGAGUUUAGAUUCUU
A) 17.5 nM

Q) Next entry: CAACCGUUGCAGAAGGUUAAAUAUAUCAACUUAUGGACAACAUGAGGAUCACCCAUGUUUUUGUUGAAGGAUAUGCAAGGGUUG
A) 5.89 nM

Q) Now this one: GUCUUGUCAGGAUAUCUUACAUAACAAUCGUAGUUACAAUUGGAGAAGGGACAUGAGGAUCACCCAUGUUAGCG
A) 32.9 nM

Q) What about AUAUAUAUAUCAGGAUAUGGACAGGCCUGUUCGUAUUAAGACAGUAACAUGAGGAUCACCCAUGUCCAGAAGGGAUAUAUAUAU ?
A) 83.9 nM

Q) Now consider GGUUGGCGAGGAUAUACAUGAGGAUCACCCAUGUGGUCCUGUGGCUGAUCUUGCCUUUGUAGAAGGCGCGGAUC and answer again.
A) 49.7 nM
